molecular target: human PD1 on cells (human, UniProt Q15116 25-288); assay: cell-based or functional assay
Sequence (Q15116 25-288 limits assumed): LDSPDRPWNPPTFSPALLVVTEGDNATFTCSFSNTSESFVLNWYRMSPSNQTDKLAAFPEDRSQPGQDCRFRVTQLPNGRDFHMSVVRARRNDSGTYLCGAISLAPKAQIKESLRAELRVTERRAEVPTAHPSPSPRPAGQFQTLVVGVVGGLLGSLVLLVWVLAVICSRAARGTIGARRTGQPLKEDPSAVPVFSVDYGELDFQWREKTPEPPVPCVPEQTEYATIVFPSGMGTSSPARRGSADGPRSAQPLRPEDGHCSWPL
PD1 blocking activity (reporter assay) Vmax values for the binders below.
The reply should contain only the number, in RLU.

Example cases with answers are listed next.
binder | val
P-1181 (antibody, human IgG1, kappa, V domains shown) VH: EVQLLESGGGLVQPGGSLRLSCAASGFTFTNYYMYWVRQAPGKGLEWVSGINPSNGGTNFNDSVKGRFTISRDNSKNTLYLQMNSLRAEDTAVYYCARRDYRFDMGFDYWGQGTLVTVSS VL: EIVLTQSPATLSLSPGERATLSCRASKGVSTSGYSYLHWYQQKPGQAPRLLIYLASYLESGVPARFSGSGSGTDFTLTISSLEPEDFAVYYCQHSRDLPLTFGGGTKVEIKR | 29600
P-1177 (antibody, human IgG1, kappa, V domains shown) VH: EVQLLESGGGLVQPGGSLRLSCAASGFTFTNYYMYWVRQAPGKGLEWMGGINPSNGGTNYADKFKGRFTISRDNSKNTLYLQMNSLRAEDTAVYYCARRDYRFDMGFDYWGQGTLVTVSS VL: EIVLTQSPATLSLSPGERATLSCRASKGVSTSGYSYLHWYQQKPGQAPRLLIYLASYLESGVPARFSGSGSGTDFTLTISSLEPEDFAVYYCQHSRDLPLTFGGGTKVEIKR | 48100
P-1175 (antibody, human IgG1, kappa, V domains shown) VH: EVQLLESGGGLVQPGGSLRLSCAASGFTFTNYYMYWVRQAPGKGLEWVSGINPSNGGTNYADKFKGRFTISRDNSKNTLYLQMNSLRAEDTAVYYCARRDYRFDMGFDYWGQGTLVTVSS VL: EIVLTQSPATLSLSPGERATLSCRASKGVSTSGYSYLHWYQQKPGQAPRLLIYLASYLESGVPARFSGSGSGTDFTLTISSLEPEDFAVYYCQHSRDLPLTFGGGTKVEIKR | 42000

# binder P-1176 (antibody, human IgG1, kappa, V domains shown) VH: EVQLLESGGGLVQPGGSLRLSCAASGFTFTNYYMYWVRQAPGKGLEWVSGINPSNGGTNYADKFKGRFTLSTDSSKNTLYLQMNSLRAEDTAVYYCARRDYRFDMGFDYWGQGTLVTVSS VL: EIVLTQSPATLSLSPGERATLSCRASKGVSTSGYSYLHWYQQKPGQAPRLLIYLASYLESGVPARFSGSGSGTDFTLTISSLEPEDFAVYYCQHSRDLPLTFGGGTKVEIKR ; its PD1 blocking activity (reporter assay) Vmax = 52100
